B1: MBP–Hrp1p NLS [S. cerevisiae] / Kap104p [yeast (S. cerevisiae)] (parent)
chain 1: RDRNDRDRDYNHRSGGNHRRNGRGGRGGYNRRNNGYHPYNR
chain 2: MASTWKPAEDYVLQLATLLQNCMSPNPEIRNNAMEAMENFQLQPEFLNYLCYILIEGESDDVLKQHYSLQDLQNNRATAGMLLKNSMLGGNNLIKSNSHDLGYVKSNIIHGLYNSNNNLVSNVTGIVITTLFSTYYRQHRDDPTGLQMLYQLLELTSNGNEPSIKALSKIMEDSAQFFQLEWSGNTKPMEALLDSFFRFISNPNFSPVIRSESVKCINTVIPLQTQSFIVRLDKFLEIIFQLAQNDENDLVRAQICISFSFLLEFRPDKLVSHLDGIVQFMLHLITTVNEEKVAIEACEFLHAFATSPNIPEHILQPYVKDIVPILLSKMVYNEESIVLLEASNDDDAFLEDKDEDIKPIAPRIVKKKEAGNGEDADDNEDDDDDDDDEDGDVDTQWNLRKCSAATLDVMTNILPHQVMDIAFPFLREHLGSDRWFIREATILALGAMAEGGMKYFNDGLPALIPFLVEQLNDKWAPVRKMTCWTLSRFSPWILQDHTEFLIPVLEPIINTLMDKKKDVQEAAISSVAVFIENADSELVETLFYSQLLTSFDKCLKYYKKKNLIILYDAIGRFAEKCALDETAMQIILPPLIEKWALLSDSDKELWPLLECLSCVASSLGERFMPMAPEVYNRAFRILCHCVELEAKSHQDPTIVVPEKDFIITSLDLIDGLVQGLGAHSQDLLFPQGTKDLTILKIMLECLQDPVHEVRQSCFALLGDIVYFFNSELVIGNLEDFLKLIGTEIMHNDDSDGTPAVINAIWALGLISERIDLNTYIIDMSRIILDLFTTNTQIVDSSVMENLSVTIGKMGLTHPEVFSSGAFANDSNWNKWCLSVNALDDVEEKSSAYMGFLKIINLTSTEVTMSNDTIHKIVTGLSSNVEANVFAQEIYTFLMNHSAQISAINFTPDEISFLQQFTS

Variants of: B1
ASSAY: ITC
COND: with Kap104p [yeast (S. cerevisiae)]
PARAMETER_MEASURED: ddG (kcal/mol)

chain 1 R32A    -0.5
chain 1 R19K R20K R23K R26K    -0.05
chain 1 R31A    0.07

A. chain 1 Y36L
B. chain 1 R19A Y36A
Task: Hey, which is lower on measured ddG, A or B ? To answer, give the label that identifies your chosen option.
Output: A
(A: -0.02 kcal/mol, B: 0.4 kcal/mol)

Just for reference, paper PMC2408616 is where these values come from.
